B1: glmS ribozyme (parent)
chain: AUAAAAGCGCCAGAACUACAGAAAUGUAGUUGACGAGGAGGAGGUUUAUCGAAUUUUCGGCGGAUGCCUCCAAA

# Variants of: B1
# Assay Remarks: self-cleavage kobs at 40 uM GlcN6P; higher = faster cleavage; RNA array
# Condition Parameters: with glucosamine-6-phosphate
This sample holds only a part of the variants without activity.

{"Ordered Residues": "AUAAAAGCGCCAGAACUACAGAAAUGUAGUUGACGAGGAGGAAAUUUAUCAAAUUUUAGGCGGAUGCCUCCAAA [G43A G44A G51A C58A]", "self-cleavage kobs at 40 uM GlcN6P": "< 1e-05 s⁻¹"}
{"Ordered Residues": "AUAAAAGCGCCACAACUACAGAAAUGUAGUUGACGCGGAGGAGGUGUAUCGAAUUUUCGGCGGAUGCAUCCAAA [G13C A36C U46G C68A]", "self-cleavage kobs at 40 uM GlcN6P": "< 1e-05 s⁻¹"}
{"Ordered Residues": "AUAAAAGCGCCAGAACUACAGAAAUGUAGUUUACGUGGAGGAGGUGUUUCGAAUUCUCGUUGGAUGCCUCCAAA [G32U A36U U46G A48U U56C G60U C61U]", "self-cleavage kobs at 40 uM GlcN6P": "< 1e-05 s⁻¹"}
{"Ordered Residues": "AUAAAAGCGCCAGAACUACAGAAAUGUAGUUGCCGAGGAGGAGGUUUAUCAAAUUUUCGGCGGAUGCCUCCAAA [A33C G51A]", "self-cleavage kobs at 40 uM GlcN6P": "< 1e-05 s⁻¹"}
{"Ordered Residues": "AUAAAAGCGCCAGGACUACAGAAAUGUAGUUGACGAGGUGGAGAUUUAUCGAAUUUUCGGCGGAUGCCUCCAAA [A14G A39U G44A]", "self-cleavage kobs at 40 uM GlcN6P": "0.000196 s⁻¹"}
{"Ordered Residues": "AUAAAUUCGACAGAACUACAGAAAUGUAAUUGAAGAGGAGGAGGUUUAUCGAAUUUUCGGCGGAUGGAUCUAAA [A6U G7U C10A G29A C34A C67G C68A C71U]", "self-cleavage kobs at 40 uM GlcN6P": "9.49e-05 s⁻¹"}
{"Ordered Residues": "AUAAAAGCGCCAAAAUUACAGAAAUGUAGUUGACGAGGAGGAGGUUUAUCGAAUUUUCGGCGGAUGUCUCCAAA [G13A C16U C67U]", "self-cleavage kobs at 40 uM GlcN6P": "< 1e-05 s⁻¹"}
{"Ordered Residues": "AUAAAAGCCCCAGAACUACAGAAAUGUAGUUGACGAGGAGGAGGUUUAUCGAUUUUUCGGCGGAUGCCUCCAAA [G9C A53U]", "self-cleavage kobs at 40 uM GlcN6P": "< 1e-05 s⁻¹"}
{"Ordered Residues": "AUAAAAGCGCCAGAACUACAGAAAUGUAGUUGACUAGGAGGAGGUUUAUGGAAUUUUCGGCGGAUGCCUCCAAA [G35U C50G]", "self-cleavage kobs at 40 uM GlcN6P": "3.53e-05 s⁻¹"}
{"Ordered Residues": "AUAAAAGCGCCAGAACUACAGAAAUGUACUUGACGAGGAGGAGGUUUAUCGAAGUUUCGGCGGAUGCCUCCAAA [G29C U54G]", "self-cleavage kobs at 40 uM GlcN6P": "6e-05 s⁻¹"}
{"Ordered Residues": "AUAAAAGCGCCAGAACUACAGAAAUGUAGUUGACGAGGAGGAGGUUUAUCGAAUUUUCGUCGGAUGCCUACAAA [G60U C70A]", "self-cleavage kobs at 40 uM GlcN6P": "< 1e-05 s⁻¹"}
{"Ordered Residues": "AUAAAAGCGCCAAAACUACAGAAAUGUAGUUGACGAGGAGGAGGCUUAUCGAAUUUUCGGCGGGUGCCUCCAAA [G13A U45C A64G]", "self-cleavage kobs at 40 uM GlcN6P": "< 1e-05 s⁻¹"}
{"Ordered Residues": "AUAAAGGCGCCAGAACUACAGAAAUGUAGUUGACGAGGAGGAGGUUUAUAGAAUUUUCGGCGGAGGCCUCCAAA [A6G C50A U65G]", "self-cleavage kobs at 40 uM GlcN6P": "< 1e-05 s⁻¹"}
{"Ordered Residues": "AUAAAAGCGCCAGAACUACAGAAAUGUAGUUGACGAGGAGGAGAUUUAUCGAAUUUUCGGCGGAGGCCUCCAAA [G44A U65G]", "self-cleavage kobs at 40 uM GlcN6P": "< 1e-05 s⁻¹"}
{"Ordered Residues": "AUAAAAGCGCCAGAACUACAGAAAUGUAGUUGACGAGGAGGAGGUUUAUCGAAUUCUCGGCGGAUACCUCCAAA [U56C G66A]", "self-cleavage kobs at 40 uM GlcN6P": "6.93e-05 s⁻¹"}
{"Ordered Residues": "AUAAAAGCGCCAGAACUACAGAAAUGUAGUUGACGAGGAGGAGGUUUCUCGAAUUUUCGGCGAAUGCCUACAAA [A48C G63A C70A]", "self-cleavage kobs at 40 uM GlcN6P": "< 1e-05 s⁻¹"}
{"Ordered Residues": "AUAAAAGCGGCAGAACUACAGAAAUGUAGUUGACGAGGAGGAAGUUUAUCGAAUUUUCGGCUGAUGCCUCCAAA [C10G G43A G62U]", "self-cleavage kobs at 40 uM GlcN6P": "< 1e-05 s⁻¹"}
{"Ordered Residues": "AUAAAAGCGCCAGAACUACAGAAAUGUAGUUGACGAGGAGGAGCUUUAUCGAAUUUUCGGCGGAUGCCUGCAAA [G44C C70G]", "self-cleavage kobs at 40 uM GlcN6P": "< 1e-05 s⁻¹"}
{"Ordered Residues": "AUAAAAGCGCCAGAACUACAGAAAUGUAGUUGACGAGGAGGUGGUUUAGCGAAUUUUCGGCGGAUGCGUCCAAA [A42U U49G C68G]", "self-cleavage kobs at 40 uM GlcN6P": "< 1e-05 s⁻¹"}
{"Ordered Residues": "AUAAAAGCGCCAGAACUACAGAAAUGUAGUUGACGACGAGGAGGUUUAUCGAUUUUUCGGCGGAUGCCUCCAAA [G37C A53U]", "self-cleavage kobs at 40 uM GlcN6P": "< 1e-05 s⁻¹"}
{"Ordered Residues": "AUAAAAGCGCCAGAAGUACAGAAAUGUAGUUGACGAGGGGGAGGUUUAUCGAAUUUUCGGCGGAUGCCUCCAAA [C16G A39G]", "self-cleavage kobs at 40 uM GlcN6P": "0.000228 s⁻¹"}
{"Ordered Residues": "AUAAAAGCGCCAGAACUACAGAAAUGUAGUCGACGAGGAGGAGGUUUAACGAAUUUUCGGCGGUUGCCUCCAAA [U31C U49A A64U]", "self-cleavage kobs at 40 uM GlcN6P": "< 1e-05 s⁻¹"}
{"Ordered Residues": "AUAAAAGGGCAAGAACUACAGAAAUGUAGUUGACGAGGAGGAGGUUUAUGGAAUUUUCGGCGGAUGCCUCCAAA [C8G C11A C50G]", "self-cleavage kobs at 40 uM GlcN6P": "0.000193 s⁻¹"}
{"Ordered Residues": "AUAAAAGCGCGAGAACUACAGAAAUGUAGUUGACGAGGAGGAGGUUUAUCGAACUUUCGGCGGAUGCCUUCAAA [C11G U54C C70U]", "self-cleavage kobs at 40 uM GlcN6P": "< 1e-05 s⁻¹"}
{"Ordered Residues": "AUAAAAGCGCCAGAACUACAGAAAUGUACUUGACGAGAAGGAGGUUUAUCGAAUUUUCGGCGGAUGCCUCCAAA [G29C G38A]", "self-cleavage kobs at 40 uM GlcN6P": "< 1e-05 s⁻¹"}
{"Ordered Residues": "AUAAAAGCGCCAGAACUACAGAAAUGUAUUCGACGAGGAGGAGGUUUCUCGAAUUUUCGGCGGAUGCCUCCAAA [G29U U31C A48C]", "self-cleavage kobs at 40 uM GlcN6P": "< 1e-05 s⁻¹"}
{"Ordered Residues": "AUAAAAGCGCCAGAACUACAGAAAUGUAGUUGAAGAGGAGGAGGUUUAUCGAAUUAUCGGCGGAUGCCUCCAAA [C34A U56A]", "self-cleavage kobs at 40 uM GlcN6P": "< 1e-05 s⁻¹"}
{"Ordered Residues": "AUAAAAGCGCCAGAACUACAGAAAUGUAGUUGACCAGGAGGAGGUUUAUCGAAUUUUAGGCGGAUGCCUCCAAA [G35C C58A]", "self-cleavage kobs at 40 uM GlcN6P": "< 1e-05 s⁻¹"}
{"Ordered Residues": "AUAAAAGCGCCAGAACUACAGAAAUGUAGUUGACGAGUAGGAGGUUGAUCGAAUUUUCGGCGGAUGCCUGCAAA [G38U U47G C70G]", "self-cleavage kobs at 40 uM GlcN6P": "0.000113 s⁻¹"}
{"Ordered Residues": "AUAAAAGCGCGAGAACUACAGAAAUGUAGUUGACGAGGAGGACGUUUAUCGAAUUUUCGGCGGUUGCCUCCAAA [C11G G43C A64U]", "self-cleavage kobs at 40 uM GlcN6P": "< 1e-05 s⁻¹"}
{"Ordered Residues": "AUAAAAGCGCCAGAACUACAGAAAUGUAGUUGACGAGGAGGAGGUUUAUUGAAAUUUCGGCGGAUGCCUCCAAA [C50U U54A]", "self-cleavage kobs at 40 uM GlcN6P": "< 1e-05 s⁻¹"}
{"Ordered Residues": "AUAAAAGCGCCAGAACUACAGAAAUGUAGUUGACGAGGAGGAGGUUUAUCGUAUUUUCGGCGCAUGCCUCCAAA [A52U G63C]", "self-cleavage kobs at 40 uM GlcN6P": "< 1e-05 s⁻¹"}
{"Ordered Residues": "AUAAAAGCGCCAGAACUACAGAAAUGUAGUUGACGAGGAGGAGGUGUAUCGAAUUAUCGGCGGAUGCCUCCAAA [U46G U56A]", "self-cleavage kobs at 40 uM GlcN6P": "5.1e-05 s⁻¹"}
{"Ordered Residues": "AUAAAAGCGCCGGACCUACAGAAAUGUAGUUGACUAGGAGGAGGUUUAUCGAAUUUUCGGCGGAUGCCUCUAAA [A12G A15C G35U C71U]", "self-cleavage kobs at 40 uM GlcN6P": "< 1e-05 s⁻¹"}
{"Ordered Residues": "AUAAAAGCGCCAGAACUACAGAAAUGUAGUUGACUAGGAGGAGGUUUAUCGAAUUUUCGGCGGAGGCCUCCAAA [G35U U65G]", "self-cleavage kobs at 40 uM GlcN6P": "< 1e-05 s⁻¹"}
{"Ordered Residues": "AUAAAAGCGCCAGAACUACAGAAAUGUAGUUGACGAGGAGGCGGUUUAUCGAAUUUUCGGCGGGUGCCUCCAAA [A42C A64G]", "self-cleavage kobs at 40 uM GlcN6P": "< 1e-05 s⁻¹"}
{"Ordered Residues": "AUAAAAGAGCCAGAACUACAGAAAUGUAGUUGACGAGGAGGAGGUUUAUCGAGUUUUCGGCGGAUGCCUCCAAA [C8A A53G]", "self-cleavage kobs at 40 uM GlcN6P": "< 1e-05 s⁻¹"}
{"Ordered Residues": "AUAAAAUCGACAGAACUACAGAAAUGUAGUUGACGAGGAGGAGGUUUAUCGAAUUUUCGUCGGAUGCCUCCAAA [G7U C10A G60U]", "self-cleavage kobs at 40 uM GlcN6P": "< 1e-05 s⁻¹"}
{"Ordered Residues": "AUAAAAGCGCCAGAACUACAGAAAUGUAGUUGACGAGGGGGAGGUUUAUCGAAUUUUCGGCGGAUGCGUCCAAA [A39G C68G]", "self-cleavage kobs at 40 uM GlcN6P": "2.98e-05 s⁻¹"}
{"Ordered Residues": "AUAAAUUCGCCAGAUCUACAGAAAUGUAGGUGACGAGGAAGAGGUUUAUCGAAUUUUCGGCGGAUGCCUCCAAA [A6U G7U A15U U30G G40A]", "self-cleavage kobs at 40 uM GlcN6P": "< 1e-05 s⁻¹"}
{"Ordered Residues": "AUAAAAGCGCCAGAACUACAGAAAUGUAGUUGACGAGGAGGAGGUUUAUCGAUUUUUCGGCGGAUAUCUCCAAA [A53U G66A C67U]", "self-cleavage kobs at 40 uM GlcN6P": "7.59e-05 s⁻¹"}
{"Ordered Residues": "AUAAAGGCGCCAGAACUACAGAAAUGUAGUUGACGAGGAGGAGGUUUAUCGAAGUUCCGGCGGAUGCCUCCAAA [A6G U54G U57C]", "self-cleavage kobs at 40 uM GlcN6P": "< 1e-05 s⁻¹"}
{"Ordered Residues": "AUAAAAGCGCCAGAACUACAGAAAUGUAGUUGACGAGGAGGAGGUUUAUCGAAUGUUCGGCGGAAGCCUCCAAA [U55G U65A]", "self-cleavage kobs at 40 uM GlcN6P": "6.02e-05 s⁻¹"}
{"Ordered Residues": "AUAAAAGCGCGAGAACUACAGAAAUGUAGUUGACGCUUAGGAGGUUUAACGAAUUUUCGGCGCAAGCCUCCAAA [C11G A36C G37U G38U U49A G63C U65A]", "self-cleavage kobs at 40 uM GlcN6P": "< 1e-05 s⁻¹"}
{"Ordered Residues": "AUAAAAGCGACAGAACUACAGAAAUGUAGUUGACGAGGAGGAGGUUUAUCUAAUUUUCGGCGGAUGCCUCCAAA [C10A G51U]", "self-cleavage kobs at 40 uM GlcN6P": "< 1e-05 s⁻¹"}
{"Ordered Residues": "AUAAAAUCGCCAGAACUACAGAAAUGUAGUUGACGAGGAGGAGGUUUAUCGAAUUUUGGGCGGAUGCGUCCAAA [G7U C58G C68G]", "self-cleavage kobs at 40 uM GlcN6P": "0.000149 s⁻¹"}
